Target or test system: pre-pro-insulin glargine
Measured Yield values are reported for all entries that follow.
Measure: Yield

Protein	Measure	Result
trypsin variant SEQ ID NO: 117 (protein) IVGGYTCAANSIPYQVSLNSGSHRCGGSLINSQWVVSAAHCYKPRIQVRLGEHNIHVLEGNEQFINAAKIITHPNFNGNTLDNDIMLIKLSSPATLNSNVATVSLPTSCAAAGTECLISGWGNTASSGSSMPSLLQCLKAPVLSDSSCKSSYPGQITGNMICVGFLEGGKDACQGDSGGPVVCNGQLQGIVSSGYGCAQKNKPGVYTKVCNYVNWIQQTIAAN	Yield	> 90%
trypsin variant SEQ ID NO: 90 (protein) IVGGYTCAANSIPYQVSLNSGSHRCGGSLINSQWVVSAAHCYKPRIQVRLGEHNIHVLEGNEQFINAAKIITHPNFNPNTLDNDIMLIKLSSPATLNSHVATVSLPTSCAAAGTECLISGWGNTASSGSSMPSLLQCLKAPVLSDSSCKSSYPGQITGNMICVGFLEGGKDSCQGDSGGPVVCNGQLQGIVSSGYGCAQKNKPGVYTKVCNYVNWIQQTIAAN	Yield	> 90%
